experimental.target: UniProt P01375
test.method.notes: TNF-Induced HEK-Blue Assay
Assay type: cell-based
settings: HEK-Blue-CD40L cells, NF-kB-driven secreted alkaline phosphatase reporter; TNFα 0.5 ng/ml; 18 h; read-out: TNF induced HEK-Blue assay IC50 value
Positions of bridges follow the written chain, without caps; N, C: chain ends. Non-standard residues stand in square brackets, D forms with d. Residues, ends and D or L forms follow the SMILES beside them. Phe(4-CH2NH2) = NCc1ccc(C[C@H](N)C(=O)O)cc1; Bip = N[C@@H](Cc1ccc(-c2ccccc2)cc1)C(=O)O; Sar = CNCC(=O)O
Recorded IC50, one value per entry.

# molecule, IC50
rows = [
    ("CC(C)C[C@@H]1NC(=O)[C@H](CCCNC(=N)N)NC(=O)[C@H](C(C)C)NC(=O)[C@@H]2CCCN2C(=O)[C@H](C(C)C)NC(=O)[C@H](CCCNC(=N)N)NC(=O)[C@H](CC(=O)O)NC(=O)[C@@H]2CCCN2C(=O)CN(C)C(=O)[C@H](Cc2ccc(-c3ccccc3)cc2)NC(=O)[C@H](Cc2ccc(-c3ccccc3)cc2)NC(=O)[C@H](Cc2c[nH]c3ccccc23)NC(=O)CSC[C@@H](C(=O)NCC(N)=O)NC1=O [Example 5] ({CH2CO}-W[Bip][Bip][Sar]PDRVPVRLCG-NH2; thioether N-13)", "200 to 2000 nM"),
]

Here is the next item to consider.
The molecule CC(C)C[C@@H]1NC(=O)[C@H](CCCNC(=N)N)NC(=O)[C@H](C(C)C)NC(=O)[C@@H]2CCCN2C(=O)[C@H](Cc2ccc(CN)cc2)NC(=O)[C@H](CCCNC(=N)N)NC(=O)[C@H](CC(=O)O)NC(=O)[C@@H]2CCCN2C(=O)CN(C)C(=O)[C@H](Cc2ccc(-c3ccccc3)cc2)NC(=O)[C@H](Cc2ccc(-c3ccccc3)cc2)NC(=O)[C@H](Cc2ccccc2)NC(=O)CSC[C@@H](C(=O)NCC(N)=O)NC1=O [Example 22] ({CH2CO}-F[Bip][Bip][Sar]PDR[Phe(4-CH2NH2)]PVRLCG-NH2; thioether N-13) , when measured on UniProt P01375, yielded IC50 of 200 to 2000 nM

###

experimental.target: TNFα (Homo sapiens, UniProt P01375)
Sequence (P01375 77-233 limits assumed): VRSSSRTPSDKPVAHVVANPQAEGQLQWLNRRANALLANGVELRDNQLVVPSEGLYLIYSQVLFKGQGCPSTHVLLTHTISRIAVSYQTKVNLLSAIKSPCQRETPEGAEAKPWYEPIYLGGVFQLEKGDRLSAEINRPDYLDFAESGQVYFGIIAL
test.method.notes: TNF-Induced HEK-Blue Assay
Assay type: cell-based
settings: HEK-Blue-CD40L cells, NF-kB-driven secreted alkaline phosphatase reporter; TNFα 0.5 ng/ml; 18 h; read-out: TNF induced HEK-Blue assay IC50 value
pIC50: −log10 of the molar value. Positions of bridges follow the written chain, without caps; N, C: chain ends. Non-standard residues stand in square brackets, D forms with d. Residues, ends and D or L forms follow the SMILES beside them. Ala(morpholin-4-yl) = N[C@@H](CN1CCOCC1)C(=O)O; Bip = N[C@@H](Cc1ccc(-c2ccccc2)cc1)C(=O)O; Chg = N[C@H](C(=O)O)C1CCCCC1; Sar = CNCC(=O)O
quantity: pIC50

# molecule, quantity, experimental.value
data = [
    ("CC(C)C[C@@H]1NC(=O)[C@H](CCCNC(=N)N)NC(=O)[C@H](C2CCCCC2)NC(=O)[C@@H]2CCCN2C(=O)[C@H](C(C)C)NC(=O)[C@@H](CCCNC(=N)N)NC(=O)[C@H](CC(=O)O)NC(=O)[C@H](Cc2cnc[nH]2)NC(=O)CN(C)C(=O)[C@H](Cc2ccc(-c3ccccc3)cc2)NC(=O)[C@H](Cc2ccc(-c3ccccc3)cc2)NC(=O)[C@H](CN2CCOCC2)NC(=O)CSC[C@@H](C(=O)NCC(N)=O)NC1=O [Example 230] ({CH2CO}-[Ala(morpholin-4-yl)][Bip][Bip][Sar]HD[dR]VP[Chg]RLCG-NH2; thioether N-13)", "pIC50", "6.70 to 7.30"),
]

Here is the next item to consider.
The molecule CC(C)C[C@@H]1NC(=O)[C@H](CCCNC(=N)N)NC(=O)[C@H](C(C)C)NC(=O)CNC(=O)[C@H](C(C)C)NC(=O)[C@H](CCCNC(=N)N)NC(=O)[C@H](CC(=O)O)NC(=O)[C@H](Cc2ccc(O)cc2)NC(=O)CN(C)C(=O)[C@H](Cc2ccc(-c3ccccc3)cc2)NC(=O)[C@H](Cc2ccc(-c3ccccc3)cc2)NC(=O)[C@H](CN2CCOCC2)NC(=O)CSC[C@@H](C(=O)NCC(N)=O)NC1=O [Example 138] ({CH2CO}-[Ala(morpholin-4-yl)][Bip][Bip][Sar]YDRVGVRLCG-NH2; thioether N-13) , when measured on TNFα (Homo sapiens, UniProt P01375), yielded pIC50 of 5.70 to 6.70

###

experimental.target: TNFα (Homo sapiens, UniProt P01375)
test.method.notes: TNF-Induced HEK-Blue Assay
Assay type: cell-based
settings: HEK-Blue-CD40L cells, NF-kB-driven secreted alkaline phosphatase reporter; TNFα 0.5 ng/ml; 18 h; read-out: TNF induced HEK-Blue assay IC50 value
pIC50: −log10 of the molar value. Positions of bridges follow the written chain, without caps; N, C: chain ends. Non-standard residues stand in square brackets, D forms with d. Residues, ends and D or L forms follow the SMILES beside them. Bip = N[C@@H](Cc1ccc(-c2ccccc2)cc1)C(=O)O; Orn = NCCC[C@H](N)C(=O)O; Sar = CNCC(=O)O
quantity: pIC50

Per the record, CC(C)C[C@@H]1NC(=O)[C@H](CCCN)NC(=O)[C@H](C(C)C)NC(=O)[C@@H]2CCCN2C(=O)[C@H](C(C)C)NC(=O)[C@H](CCCNC(=N)N)NC(=O)[C@H](CC(=O)O)NC(=O)[C@@H]2CCCN2C(=O)CN(C)C(=O)[C@H](Cc2ccc(-c3ccccc3)cc2)NC(=O)[C@H](Cc2ccc(-c3ccccc3)cc2)NC(=O)[C@H](Cc2ccccc2)NC(=O)CSC[C@@H](C(=O)NCC(N)=O)NC1=O [Example 2] ({CH2CO}-F[Bip][Bip][Sar]PDRVPV[Orn]LCG-NH2; thioether N-13) has pIC50 of 5.70 to 6.70

###

experimental.target: UniProt P01375
test.method.notes: TNF-Induced HEK-Blue Assay
Type: cell-based
settings: HEK-Blue-CD40L cells, NF-kB-driven secreted alkaline phosphatase reporter; TNFα 0.5 ng/ml; 18 h; read-out: TNF induced HEK-Blue assay IC50 value
pIC50: −log10 of the molar value. Positions of bridges follow the written chain, without caps; N, C: chain ends. Non-standard residues stand in square brackets, D forms with d. Residues, ends and D or L forms follow the SMILES beside them. Ala(morpholin-4-yl) = N[C@@H](CN1CCOCC1)C(=O)O; Bip = N[C@@H](Cc1ccc(-c2ccccc2)cc1)C(=O)O; Hyp = O=C(O)[C@@H]1C[C@@H](O)CN1; Sar = CNCC(=O)O
quantity: pIC50

Per the record, CC(C)C[C@@H]1NC(=O)[C@H](Cc2ccc(O)cc2)NC(=O)[C@H](C(C)C)NC(=O)[C@@H]2C[C@@H](O)CN2C(=O)[C@H](C(C)C)NC(=O)[C@H](CCCNC(=N)N)NC(=O)[C@H](CC(=O)O)NC(=O)[C@H](Cc2ccc(O)cc2)NC(=O)CN(C)C(=O)[C@H](Cc2ccc(-c3ccccc3)cc2)NC(=O)[C@H](Cc2ccc(-c3ccccc3)cc2)NC(=O)[C@H](CN2CCOCC2)NC(=O)CSC[C@@H](C(=O)NCC(N)=O)NC1=O [Example 73] ({CH2CO}-[Ala(morpholin-4-yl)][Bip][Bip][Sar]YDRV[Hyp]VYLCG-NH2; thioether N-13) has pIC50 of 5.70 to 6.70

###

experimental.target: TNFα (Homo sapiens)
test.method.notes: TNF-Induced HEK-Blue Assay
Format: cell-based
settings: HEK-Blue-CD40L cells, NF-kB-driven secreted alkaline phosphatase reporter; TNFα 0.5 ng/ml; 18 h; read-out: TNF induced HEK-Blue assay IC50 value
pIC50: −log10 of the molar value. Positions of bridges follow the written chain, without caps; N, C: chain ends. Non-standard residues stand in square brackets, D forms with d. Residues, ends and D or L forms follow the SMILES beside them. Phe(4-(4-pyridyl)) = N[C@@H](Cc1ccc(-c2ccncc2)cc1)C(=O)O; Ala(morpholin-4-yl) = N[C@@H](CN1CCOCC1)C(=O)O; Bip = N[C@@H](Cc1ccc(-c2ccccc2)cc1)C(=O)O; Sar = CNCC(=O)O
Recorded pIC50, one value per entry.

# molecule, pIC50
measured = [
    ("CC(C)[C@@H]1NC(=O)[C@H](CCCNC(=N)N)NC(=O)[C@H](C(C)C)NC(=O)[C@@H]2CCCN2C(=O)[C@H](C(C)C)NC(=O)[C@H](CCCNC(=N)N)NC(=O)[C@H](CC(=O)O)NC(=O)[C@@H]2CCCN2C(=O)CN(C)C(=O)[C@H](Cc2ccc(-c3ccccc3)cc2)NC(=O)[C@H](Cc2ccc(-c3ccncc3)cc2)NC(=O)[C@H](CN2CCOCC2)NC(=O)CSC[C@@H](C(=O)NCC(N)=O)NC1=O [Example 87] ({CH2CO}-[Ala(morpholin-4-yl)][Phe(4-(4-pyridyl))][Bip][Sar]PDRVPVRVCG-NH2; thioether N-13)", "6.70 to 7.30"),
]

Per the record, CC(C)C[C@@H]1NC(=O)[C@H](CCCNC(=N)N)NC(=O)[C@H](C(C)C)NC(=O)[C@@H]2CCCN2C(=O)[C@H](C(C)C)NC(=O)[C@@H](CCCNC(=N)N)NC(=O)[C@H](CC(=O)O)NC(=O)[C@@H]2CCCN2C(=O)CN(C)C(=O)[C@H](Cc2ccc(-c3ccccc3)cc2)NC(=O)[C@H](Cc2ccc(-c3ccccc3)cc2)NC(=O)[C@H](CN2CCOCC2)NC(=O)CSC[C@@H](C(=O)NCC(N)=O)NC1=O [Example 202] ({CH2CO}-[Ala(morpholin-4-yl)][Bip][Bip][Sar]PD[dR]VPVRLCG-NH2; thioether N-13) has pIC50 of 5.70 to 6.70
